Observation Type: melting point (°C)

See these solved cases before continuing.
- Compound: "NC(=O)c1ncn(CCOc2ccccc2)c1O"
  Unit Spec: "°C"
  Reported Value: 192
- Compound: "N#Cc1ccc(OCCn2cnc(O)c2C(N)=O)cc1"
  Unit Spec: "°C"
  Reported Value: 264
- Compound: "NC(=O)c1ncn(CCOc2ccc(F)cc2)c1O"
  Unit Spec: "°C"
  Reported Value: 204
- Compound: "CCOC(=O)c1ncn(CCOc2ccc(C(=O)OC)cc2)c1O"
  Unit Spec: "°C"
  Reported Value: 202
- Compound: "COC(=O)c1ccc(OCCn2cnc(C(N)=O)c2O)cc1"
  Unit Spec: "°C"
  Reported Value: 190

[P] NC(=O)c1c(O)ncn1-c1ccccc1
[Q] COC(=O)c1ccc(OCCn2cnc(O)c2C(N)=O)cc1 [Example 16b is]
For the pair P and Q , which member has the lower melting point number? Identify your pick by its label.
P
(P: 182 °C, Q: 263 °C)

====

Observation Type: melting point

- Substance Smiles: "NC(=O)c1c(O)ncn1Cc1ccc(F)cc1"
  melting point: "230 to 234 °C"
- Substance Smiles: "NC(=O)Nc1ccc(Cn2cnc(O)c2C(N)=O)cc1"
  melting point: "243 to 244 °C"
- Substance Smiles: "COc1ncn(Cc2ccc([N+](=O)[O-])cc2)c1C(N)=O"
  melting point: "201 to 203 °C"
- Substance Smiles: "CCOC(=O)c1ccc(Cn2cnc(O)c2C(N)=O)cc1"
  melting point: "266 to 268 °C"
- Substance Smiles: "NC(=O)c1c(O)ncn1CCOc1ccc(F)cc1"
  melting point: "230 °C"

Consider the molecule shown here: "N#Cc1ccc(OCCn2cnc(C(N)=O)c2O)cc1" What is its recorded melting point?
190 °C

And "CCOC(=O)c1ncn(CCOc2ccc(C#N)cc2)c1O" ?
190 °C

And then "NC(=O)c1c(OCc2ccccc2)ncn1Cc1ccc([N+](=O)[O-])cc1" , what is it?
193 to 195 °C

====

Observation Type: melting point

// query melting point value for entry NC(=O)c1c(O)ncn1Cc1ccc(N)cc1 [Example 18]
230 to 231 °C

====

Observation Type: melting point

- Substance Smiles: "COc1cccc(C(=O)Nc2ccc(Cn3cnc(O)c3C(N)=O)cc2)c1"
  melting point: "257 to 259 °C"
- Substance Smiles: "NC(=O)c1c(O)ncn1Cc1ccc(NC(=O)Nc2ccccc2)cc1"
  melting point: "232 to 235 °C"
- Substance Smiles: "CCOC(=O)c1ncn(Cc2ccccc2)c1OC"
  melting point: "150 to 153 °C"
- Substance Smiles: "NC(=O)c1c(O)ncn1Cc1ccc(Cl)cc1"
  melting point: "206 to 212 °C"
- Substance Smiles: "CCOC(=O)c1ncn(CCOc2ccc(F)cc2)c1O"
  melting point: "200 °C"

Shifting focus to the molecule that follows.
Request the reported melting point associated with "NC(=O)c1c(O)ncn1Cc1ccc(NC(=O)Nc2cccc(C(=O)O)c2)cc1"
218 to 220 °C
